# target of assay: wheat germ agglutinin (WGA)
# Construct: horseradish peroxidase-labelled WGA (WGA-HRP); homodimer
# experiment: competitive enzyme-linked lectin assay (ELLA), WGA-HRP vs PAA-GlcNAc

- compound: "CC(=O)N[C@H]1C(O)O[C@H](CO)[C@@H](O)[C@@H]1O (stereo partly shown)"
  IC50: "35 mM"
